- Test system: CNS
- ASSAY METHOD TEXT: Preliminary study similar to Irwin's test in mice: effect on CNS
- Assay type: in vivo
- Design: key: --: If no effects were detected, no figures are shown
- STUDY CONDITIONS: 100 mg/kg, 1, 2, 3, 4 and 24 hours
OUTCOME MEASURE: Loss of right-time reflex

Sample records with Loss of right-time reflex:
# COMPOUND, Loss of right-time reflex
records = [
    ("CN1CCC(=C2c3ccccc3CC(=O)c3sccc32)CC1 [Ketotifene, reference compound]", "--"),
    ("CCOCCn1c(C2CCN(CCc3ccc(C(C)(C)C)cc3)CC2)nc2ccccc21 [2 CH2 CH3]", "--"),
    ("CC(C)OCCn1c(C2CCN(Cc3ccc(C(C)(C)C)cc3)CC2)nc2ccccc21 [1 CH(CH3)2]", "--"),
    ("COCCn1c(C2CCN(Cc3ccc(C(C)(C)C)cc3)CC2)nc2ccccc21 [1 CH3]", "--"),
]

QUERY: For the compound CCOCCn1c(C2CCN(Cc3ccc(C(C)(C)C)cc3)CC2)nc2ccccc21 [1 CH2 CH3] , what Loss of right-time reflex is on record?
RESULT: --

###

- Test system: CNS
- ASSAY METHOD TEXT: Preliminary study similar to Irwin's test in mice: effect on CNS
- Format: in vivo
- STUDY CONDITIONS: 100 mg/kg, 1, 2, 3, 4 and 24 hours
OUTCOME MEASURE: Spontaneous Activity decrease

Some molecules with known Spontaneous Activity decrease results, for comparison:
# MOLECULE, TESTED ON, Spontaneous Activity decrease
data = [
    ("COCCn1c(C2CCN(Cc3ccc(C(C)(C)C)cc3)CC2)nc2ccccc21", "CNS", "3/4"),
    ("CN1CCC(=C2c3ccccc3CC(=O)c3sccc32)CC1 [Ketotifene, reference compound]", "CNS", "--"),
    ("CCOCCn1c(C2CCN(CCc3ccc(C(C)(C)C)cc3)CC2)nc2ccccc21", "CNS", "--"),
    ("CCOCCn1c(C2CCN(Cc3ccc(C(C)(C)C)cc3)CC2)nc2ccccc21", "CNS", "--"),
]

QUERY: Give CNS Spontaneous Activity decrease for CC(C)OCCn1c(C2CCN(Cc3ccc(C(C)(C)C)cc3)CC2)nc2ccccc21
RESULT: --
